experiment: Fraction unbound in rat plasma by equilibrium dialysis method; type: ADME, cell-free
testReadout: fraction unbound

| smilesStructure | observedValue |
| --- | --- |
| CCS(=O)(=O)N[C@@H]1C[C@]2(C)O[C@]1(C)[C@@H]1C(=O)N(c3ccc(C#N)c(C(F)(F)F)c3)C(=O)[C@@H]12 | 0.106 |

====

assay: Clearance in dog at 1 mg/kg, iv and 2 mg/kg, po; format: ADME, organism-based, Canis lupus familiaris; settings: in vivo
testReadout: clearance (mL/min/kg)

| smilesStructure | observedValue |
| --- | --- |
| CCS(=O)(=O)N[C@@H]1C[C@]2(C)O[C@]1(C)[C@@H]1C(=O)N(c3ccc(C#N)c(C(F)(F)F)c3)C(=O)[C@@H]12 | 0.35 |

====

assay: Plasma concentration in immature Sprague-Dawley rat prostate weight model at 1 mg/kg, po qd administered for 4 days measured 2 hrs post last dose on day 4; assay type: ADME, organism-based
testReadout: log10 concentration at 2 h (log10 of the value in nM)

| compound | log10 concentration at 2 h |
| --- | --- |
| C[C@]12O[C@@](C)(C[C@H]1N)[C@H]1C(=O)N(c3ccc(C#N)c(C(F)(F)F)c3)C(=O)[C@H]12 | 1.90 |
| C[C@]12O[C@@](C)(C[C@H]1NS(=O)(=O)c1ccccc1)[C@H]1C(=O)N(c3ccc(C#N)c(C(F)(F)F)c3)C(=O)[C@H]12 | 2.36 |
| C[C@]12O[C@@](C)(C[C@H]1NS(=O)(=O)c1ccccc1F)[C@H]1C(=O)N(c3ccc(C#N)c(C(F)(F)F)c3)C(=O)[C@H]12 | 2.20 |
| CC(C)NC(=O)N[C@@H]1C[C@]2(C)O[C@]1(C)[C@@H]1C(=O)N(c3ccc(C#N)c(C(F)(F)F)c3)C(=O)[C@@H]12 | 3.92 |
| CCS(=O)(=O)N[C@@H]1C[C@]2(C)O[C@]1(C)[C@@H]1C(=O)N(c3ccc(C#N)c(C(F)(F)F)c3)C(=O)[C@@H]12 | 2.90 |
| C[C@]12O[C@@](C)(C[C@H]1NS(=O)(=O)c1cccnc1)[C@H]1C(=O)N(c3ccc(C#N)c(C(F)(F)F)c3)C(=O)[C@H]12 | 1.70 |
| CNS(=O)(=O)N[C@@H]1C[C@]2(C)O[C@]1(C)[C@@H]1C(=O)N(c3ccc(C#N)c(C(F)(F)F)c3)C(=O)[C@@H]12 | 1.00 |
| CCC(=O)N[C@@H]1C[C@]2(C)O[C@]1(C)[C@@H]1C(=O)N(c3ccc(C#N)c(C(F)(F)F)c3)C(=O)[C@@H]12 | 4.38 |
| CC(O)(CS(=O)(=O)c1ccc(F)cc1)C(=O)Nc1ccc(C#N)c(C(F)(F)F)c1 (stereo unspecified) [BICALUTAMIDE] | 3.36 |
| CN(C(=O)[C@@H]1C[C@]2(C)O[C@]1(C)[C@@H]1C(=O)N(c3ccc(C#N)c(C(F)(F)F)c3)C(=O)[C@@H]12)c1ccccc1 | 3.26 |
| C[C@]12O[C@@](C)(C[C@H]1NS(C)(=O)=O)[C@H]1C(=O)N(c3ccc(C#N)c(C(F)(F)F)c3)C(=O)[C@H]12 | 2.46 |

====

Molecular target: Nuclear receptor subfamily 1 group I member 2 (Homo sapiens, UniProt O75469)
Sequence (O75469 whole entry): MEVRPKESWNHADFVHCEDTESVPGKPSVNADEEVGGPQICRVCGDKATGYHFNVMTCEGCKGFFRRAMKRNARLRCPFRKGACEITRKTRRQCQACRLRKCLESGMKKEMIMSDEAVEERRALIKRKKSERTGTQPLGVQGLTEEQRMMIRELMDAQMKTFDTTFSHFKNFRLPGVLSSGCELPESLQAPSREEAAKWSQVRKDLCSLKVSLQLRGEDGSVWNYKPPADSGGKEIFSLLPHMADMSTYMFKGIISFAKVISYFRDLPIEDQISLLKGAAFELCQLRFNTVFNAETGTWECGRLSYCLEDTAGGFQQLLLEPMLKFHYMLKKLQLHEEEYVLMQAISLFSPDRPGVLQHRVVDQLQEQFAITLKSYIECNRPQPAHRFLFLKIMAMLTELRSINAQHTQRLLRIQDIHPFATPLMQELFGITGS
Assay: Transactivation of human PXR
testReadout: EC50

| smilesStructure | systemTested | testReadout | observedValue |
| --- | --- | --- | --- |
| CCS(=O)(=O)N[C@@H]1C[C@]2(C)O[C@]1(C)[C@@H]1C(=O)N(c3ccc(C#N)c(C(F)(F)F)c3)C(=O)[C@@H]12 | Nuclear receptor subfamily 1 group I member 2 (Homo sapiens, UniProt O75469) | EC50 | > 50 µM |

====

assay: AUC (0 to infinity) in dog at 2 mg/kg, po; format: ADME, organism-based, Canis lupus familiaris; parameters: dose 2 mg/kg, time infinity, route oral; settings: in vivo

| smilesStructure | readoutUnits | AUC(0-inf) |
| --- | --- | --- |
| CCS(=O)(=O)N[C@@H]1C[C@]2(C)O[C@]1(C)[C@@H]1C(=O)N(c3ccc(C#N)c(C(F)(F)F)c3)C(=O)[C@@H]12 | µM·h | 160 |

====

assay: AUC (0 to infinity) in dog at 1 mg/kg, iv; assay type: ADME, organism-based, Canis lupus familiaris; design: dose 1 mg/kg, route intravenous, time infinity; details: in vivo

| smilesStructure | AUC(0-inf) / µM·h |
| --- | --- |
| CCS(=O)(=O)N[C@@H]1C[C@]2(C)O[C@]1(C)[C@@H]1C(=O)N(c3ccc(C#N)c(C(F)(F)F)c3)C(=O)[C@@H]12 | 102 |

====

Target: Cytochrome P450 1A2 (Homo sapiens, UniProt P05177)
Sequence (P05177 whole entry): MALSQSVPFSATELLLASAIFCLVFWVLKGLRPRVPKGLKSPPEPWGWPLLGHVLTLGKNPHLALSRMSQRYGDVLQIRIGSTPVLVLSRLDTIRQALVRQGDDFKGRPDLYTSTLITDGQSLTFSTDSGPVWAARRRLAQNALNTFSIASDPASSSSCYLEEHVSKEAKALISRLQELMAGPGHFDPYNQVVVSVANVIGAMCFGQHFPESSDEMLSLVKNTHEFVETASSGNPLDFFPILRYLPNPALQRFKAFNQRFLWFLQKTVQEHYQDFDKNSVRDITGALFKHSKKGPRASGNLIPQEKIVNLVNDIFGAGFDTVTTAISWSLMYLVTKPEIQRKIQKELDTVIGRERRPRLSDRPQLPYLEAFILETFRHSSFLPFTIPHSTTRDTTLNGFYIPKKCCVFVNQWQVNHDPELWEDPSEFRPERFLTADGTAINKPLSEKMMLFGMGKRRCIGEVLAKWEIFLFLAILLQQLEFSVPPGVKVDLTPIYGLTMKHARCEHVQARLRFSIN

| smilesStructure | IC50 |
| --- | --- |
| CCS(=O)(=O)N[C@@H]1C[C@]2(C)O[C@]1(C)[C@@H]1C(=O)N(c3ccc(C#N)c(C(F)(F)F)c3)C(=O)[C@@H]12 | > 40 µM |

====

test: Half life in mouse at 5 mg/kg, iv and 10 mg/kg, po; assay type: ADME, organism-based; conditions: in vivo
testReadout: half-life

| smilesStructure | observedValue |
| --- | --- |
| CCS(=O)(=O)N[C@@H]1C[C@]2(C)O[C@]1(C)[C@@H]1C(=O)N(c3ccc(C#N)c(C(F)(F)F)c3)C(=O)[C@@H]12 | 2.4 h |

====

experiment: Fraction unbound in human plasma by equilibrium dialysis method; assay type: ADME, cell-free

| smilesStructure | fraction unbound |
| --- | --- |
| CCS(=O)(=O)N[C@@H]1C[C@]2(C)O[C@]1(C)[C@@H]1C(=O)N(c3ccc(C#N)c(C(F)(F)F)c3)C(=O)[C@@H]12 | 0.104 |

====

test system: Rattus norvegicus; assay: In vivo antagonist activity at androgen receptor in immature Sprague-Dawley rat prostate weight model assessed as testosterone propionate-induced weight of seminal vesicles over full body weight at 1 mg/kg, po qd administered for 4 days; type: functional; design: scale not given: the % may be the effect or the level left
Assign Condition met to entries whose Activity meets or exceeds 60%; assign Condition not met to the rest.

| smilesStructure | classification |
| --- | --- |
| CCC(=O)N[C@@H]1C[C@]2(C)O[C@]1(C)[C@@H]1C(=O)N(c3ccc(C#N)c(C(F)(F)F)c3)C(=O)[C@@H]12 | Condition met |
| C[C@]12O[C@@](C)(C[C@H]1N)[C@H]1C(=O)N(c3ccc(C#N)c(C(F)(F)F)c3)C(=O)[C@H]12 | Condition met |
| C[C@]12O[C@@](C)(C[C@H]1NS(=O)(=O)c1ccccc1)[C@H]1C(=O)N(c3ccc(C#N)c(C(F)(F)F)c3)C(=O)[C@H]12 | Condition met |
| CNS(=O)(=O)N[C@@H]1C[C@]2(C)O[C@]1(C)[C@@H]1C(=O)N(c3ccc(C#N)c(C(F)(F)F)c3)C(=O)[C@@H]12 | Condition met |
| C[C@]12O[C@@](C)(C[C@H]1NS(=O)(=O)c1ccccc1F)[C@H]1C(=O)N(c3ccc(C#N)c(C(F)(F)F)c3)C(=O)[C@H]12 | Condition not met |
| C[C@]12O[C@@](C)(C[C@H]1NS(C)(=O)=O)[C@H]1C(=O)N(c3ccc(C#N)c(C(F)(F)F)c3)C(=O)[C@H]12 | Condition met |
